Numbers sourced from patent US20220363686A1.

System: HepAD38 cells
assay_overview: Cell viability assay (AlamarBlue)
assay_context: 0.3 μg/ml tetracycline, six days incubation, AlamarBlue
experimental_endpoint: CC50

>>> result("CC1Cn2ncc(C(=O)NC3(COC(F)F)CC3)c2CN1C(=O)c1cc2ccccc2[nH]1 (single isomer, unassigned)")
"> 10 µM"

Look at each compound and report its CC50.
1. COCC1(N(C)C(=O)c2cnn3c2CN(C(=O)c2cc4ccccc4[nH]2)C(C)C3)CC1 (single isomer, unassigned)
2. CC1Cn2ncc(C(=O)N(C)C3CC3)c2CN1C(=O)c1cc2ccccc2[nH]1 (single isomer, unassigned)

// result
1: > 10 µM; 2: > 10 µM
